Provenance of the data: ChEMBL document CHEMBL1133688

- testTarget: 3',5'-cyclic-AMP phosphodiesterase 4A (Homo sapiens)
- Sequence (P27815 whole entry): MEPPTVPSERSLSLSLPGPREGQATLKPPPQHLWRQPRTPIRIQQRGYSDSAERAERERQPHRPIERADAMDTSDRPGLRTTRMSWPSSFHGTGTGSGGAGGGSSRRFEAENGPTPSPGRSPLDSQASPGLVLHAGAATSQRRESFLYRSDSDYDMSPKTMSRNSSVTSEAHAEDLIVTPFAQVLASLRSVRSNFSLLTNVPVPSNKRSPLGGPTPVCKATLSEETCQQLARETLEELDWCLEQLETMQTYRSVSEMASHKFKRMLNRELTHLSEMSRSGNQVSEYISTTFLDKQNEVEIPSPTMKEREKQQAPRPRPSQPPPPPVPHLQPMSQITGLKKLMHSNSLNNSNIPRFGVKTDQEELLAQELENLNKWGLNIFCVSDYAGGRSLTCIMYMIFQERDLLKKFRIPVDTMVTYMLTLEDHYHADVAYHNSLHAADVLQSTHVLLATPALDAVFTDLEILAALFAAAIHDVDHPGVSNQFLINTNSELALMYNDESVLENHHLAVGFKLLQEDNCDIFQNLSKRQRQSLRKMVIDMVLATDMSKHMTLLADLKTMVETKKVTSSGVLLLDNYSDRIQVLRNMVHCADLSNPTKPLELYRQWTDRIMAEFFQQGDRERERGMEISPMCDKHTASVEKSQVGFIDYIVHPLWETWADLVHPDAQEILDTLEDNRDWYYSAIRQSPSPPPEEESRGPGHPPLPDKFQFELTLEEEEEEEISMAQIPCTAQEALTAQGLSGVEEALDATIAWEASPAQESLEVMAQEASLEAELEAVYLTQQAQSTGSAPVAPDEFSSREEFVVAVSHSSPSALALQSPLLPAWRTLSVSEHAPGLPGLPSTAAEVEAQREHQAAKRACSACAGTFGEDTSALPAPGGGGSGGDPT
- procedureSummary: Inhibition of recombinant human PDE4A expressed in Sf9 cells
measurementType: Ki (nM)

[[record]]
molecule = "COc1ccc([C@H](Cc2ccncc2)c2ccccc2)cc1OC1CCCC1 [CDP840]"
measurednumber = 4

